Literature-derived Ki for Metabotropic glutamate receptor 5 (Rattus norvegicus) follows.

Here are 4 compounds together with their reported answers.
Field Ki (entry COc1cccc(-c2c(S(=O)(=O)c3cc(F)cc(F)c3)cnc3cc(F)ccc23)c1 ) reads < 0.2 µM

Field Ki (entry COc1ccc(C(=O)N2CCc3oc(C)nc3C2)cc1C#Cc1ccccn1 ) reads 0.03 µM

Field Ki (entry Cc1ccc(S(=O)(=O)c2cnc3ccc(F)cc3c2-c2ccc(Cl)cc2)cc1Cl ) reads < 0.2 µM

Field Ki (entry Cc1ccc(S(=O)(=O)c2cnc3c(F)cccc3c2N2CCC(C)CC2)cc1F ) reads < 0.2 µM

Then there is this compound:
Field Ki (entry CC1CCN(c2c(S(=O)(=O)c3ccc(F)c(F)c3)cnc3ccc(F)cc23)CC1 ) reads < 0.2 µM

----------
Literature-derived Ki for Metabotropic glutamate receptor 5 (Rattus norvegicus, UniProt P31424) follows.

Field Ki (entry O=S(=O)(c1ccc(F)c(F)c1)c1cnc2cc(F)ccc2c1-c1ccc(F)cc1 ) reads < 200 nM

Field Ki (entry Cc1ccc2ncc(S(=O)(=O)c3ccc(F)cc3)c(N3CCC(C)CC3)c2c1 ) reads < 200 nM

Then there is this compound:
Field Ki (entry Cc1ccc(C(=O)N2CCc3[nH]ncc3C2)cc1C#Cc1ccccn1 ) reads 6 nM

----------
pKi: −log10 of the molar value.
Literature-derived pKi for Metabotropic glutamate receptor 5 (Rattus norvegicus, UniProt P31424) follows.

Here are 4 molecules together with their reported answers.
Item CC1CCN(c2c(S(=O)(=O)c3ccc(F)c(Cl)c3)cnc3cc(F)ccc23)CC1 was tested on Metabotropic glutamate receptor 5 (Rattus norvegicus, UniProt P31424); the reported pKi is > 6.70

Item Cc1ccc(S(=O)(=O)c2sc3nc(Cl)ccc3c2-c2ccc(Cl)cc2)cc1F was tested on Metabotropic glutamate receptor 5 (Rattus norvegicus, UniProt P31424); the reported pKi is > 6.30

Item COc1cccc(S(=O)(=O)c2cnc3ccc(Cl)cc3c2N2CCC(C)CC2)c1 was tested on Metabotropic glutamate receptor 5 (Rattus norvegicus, UniProt P31424); the reported pKi is > 6.70

Item O=S(=O)(c1ccc(F)c(Cl)c1)c1cnc2cc(F)c(Cl)cc2c1-c1ccccc1F was tested on Metabotropic glutamate receptor 5 (Rattus norvegicus, UniProt P31424); the reported pKi is < 6.30

Take each entry in turn and give its pKi.
1. Cc1ccc(S(=O)(=O)c2cnc3ccccc3c2N2CCCCCC2)cc1
2. COc1ccc2ncc(S(=O)(=O)c3ccc(OC)c(Cl)c3)c(N3CCOCC3)c2c1

Result:
> 6.70
< 6.30

Take each entry in turn and give its pKi.
1. Cc1ccc(Nc2c(S(=O)(=O)c3ccc(Cl)cc3)cnc3ccccc23)cc1C
2. Cc1ccc(S(=O)(=O)c2cnc3cc(F)ccc3c2-c2cccc(Cl)c2)cc1C
3. O=C(c1ccc(F)c(C#Cc2ccccn2)c1)N1Cc2ccccc2C1
4. O=S(=O)(c1ccc(F)c(Cl)c1)c1cnc2cc(Cl)ccc2c1-c1cccc(F)c1
5. COc1cccc(S(=O)(=O)c2cnc3ccc(OC)cc3c2N2CCC(C)CC2)c1

Result:
1: < 6.30; 2: > 6.70; 3: 7.96; 4: > 6.70; 5: < 6.30

Take each entry in turn and give its pKi.
1. Cc1ccc(S(=O)(=O)c2cnc3cc(F)ccc3c2-c2ccc(F)cc2)cc1C
2. O=C(c1ccc(C(F)(F)F)c(C#Cc2ccccn2)c1)N1CCc2[nH]cnc2C1

Result:
1. > 6.70
2. 7.44

----------
Literature-derived pKi for Metabotropic glutamate receptor 5 (Rattus norvegicus) follows.
pKi: −log10 of the molar value.

Take each entry in turn and give its pKi.
1. N#Cc1cc(F)cc(S(=O)(=O)c2sc3nc(Cl)ccc3c2-c2ccc(Cl)cc2)c1
2. O=C(CCc1cccc(F)c1)c1sc2ncccc2c1-c1ccc(F)cc1
3. CCN(CC)c1c(S(=O)(=O)c2ccc(C)cc2)cnc2ccccc12
4. O=S(=O)(c1ccc(Cl)c(Cl)c1)c1cnc2cc(Cl)ccc2c1-c1ccc(F)c(F)c1
5. O=[N+]([O-])c1cnc2sc(S(=O)(=O)c3ccc(Cl)cc3)c(-c3ccc(Cl)cc3)c2c1

Result:
1: > 6.30; 2: > 6.30; 3: 6.30 to 6.70; 4: > 6.70; 5: 5.82 to 6.30

Take each entry in turn and give its pKi.
1. N#Cc1cccc(S(=O)(=O)c2sc3nc(Cl)ccc3c2-c2ccc(Cl)cc2)c1
2. N#Cc1cc(F)cc(S(=O)(=O)c2sc3ncccc3c2-c2ccc(F)cc2)c1
3. O=S(=O)(c1ccc(N2CCCCC2)cc1)c1cnc2ccc(Cl)cc2c1N1CCCCC1
4. CC1CCN(c2c(S(=O)(=O)c3ccccc3)cnc3ccc(F)cc23)CC1
5. Cc1ccc(S(=O)(=O)c2cnc3ccc(Cl)cc3c2N2CCOCC2)cc1C
6. CC1CCN(c2c(S(=O)(=O)c3ccc(Cl)cc3)cnc3cc(F)ccc23)CC1
7. O=S(=O)(c1ccc(Cl)cc1)c1sc2ncccc2c1-c1cccc(F)c1

Result:
1: < 5.82; 2: > 6.30; 3: < 6.30; 4: < 6.30; 5: < 6.30; 6: > 6.70; 7: > 6.30

Take each entry in turn and give its pKi.
1. COc1ccc(-c2c(S(=O)(=O)c3ccc(OC)c(Cl)c3)cnc3ccc(F)cc23)cc1
2. Cc1ccc2ncc(S(=O)(=O)c3ccc(C)c(Cl)c3)c(N3CCOCC3)c2c1
3. COc1cccc(S(=O)(=O)c2cnc3ccc(F)cc3c2N2CCOCC2)c1
4. O=S(=O)(c1ccc(F)cc1)c1cnc2cc(F)ccc2c1-c1cccc(F)c1
5. Cc1ccc(Nc2c(S(=O)(=O)c3ccc(C)cc3)cnc3ccccc23)cc1
6. COc1ccc(C(=O)N2Cc3cccnc3C2)cc1C#Cc1ccccn1
7. COc1ccc2ncc(S(=O)(=O)c3ccc(Cl)c(Cl)c3)c(N3CCOCC3)c2c1

Result:
1: > 6.70; 2: 6.30 to 6.70; 3: < 6.30; 4: > 6.70; 5: < 6.30; 6: 7.59; 7: < 6.30

----------
Literature-derived Ki for Metabotropic glutamate receptor 5 (Rattus norvegicus) follows.

Here are 2 molecules together with their reported answers.
Field Ki (entry O=S(=O)(c1cccc(F)c1)c1cnc2c(F)cccc2c1-c1cccc(Cl)c1 ) reads < 0.2 µM

Field Ki (entry N#Cc1cc(F)cc(S(=O)(=O)c2sc3nc(F)ccc3c2-c2ccc(Cl)cc2)c1 ) reads < 0.5 µM

Take each entry in turn and give its Ki.
1. O=S(=O)(c1ccccc1)c1cnc2ccc(F)cc2c1N1CCCCCC1
2. O=S(=O)(c1cc(F)cc(F)c1)c1cnc2c(F)cccc2c1-c1ccc(Cl)cc1

Result:
> 0.5 µM
< 0.2 µM

----------
Literature-derived Ki for UniProt:P31424 follows.

Here are 10 compounds together with their reported answers.
Field Ki (entry Cc1noc(C)c1S(=O)(=O)c1sc2ncccc2c1-c1ccc(Cl)cc1 ) reads > 1500 nM

Field Ki (entry CCOC(=O)C1CCN(c2c(S(=O)(=O)c3ccccc3)cnc3ccc(CC)cc23)CC1 ) reads > 500 nM

Field Ki (entry CC1CCN(c2c(S(=O)(=O)c3ccc(Cl)c(Cl)c3)cnc3ccc(F)cc23)CC1 ) reads < 200 nM

Field Ki (entry O=S(=O)(c1cccc(F)c1)c1cnc2c(F)cccc2c1-c1ccc(F)cc1 ) reads < 200 nM

Field Ki (entry COc1ccc(C(=O)N2CCc3cccc(OC)c3C2)cc1C#Cc1ccccn1 ) reads 3 nM

Field Ki (entry CCc1ccc2ncc(S(=O)(=O)c3ccccc3)c(N3CCCCC3)c2c1 ) reads > 500 nM

Field Ki (entry O=S(=O)(c1ccccc1)c1cnc2ccc(F)cc2c1N1CCCCC1 ) reads > 500 nM

Field Ki (entry COc1ccc(S(=O)(=O)c2cnc3c(F)cccc3c2-c2ccc(Cl)cc2)cc1 ) reads < 200 nM

Field Ki (entry N#Cc1cccc(S(=O)(=O)c2cnc3cc(C#N)ccc3c2-c2ccc(Cl)cc2)c1 ) reads 200 to 500 nM

Field Ki (entry COc1ccc2ncc(S(=O)(=O)c3cc(F)cc(F)c3)c(N3CCC(C)CC3)c2c1 ) reads > 500 nM

Take each entry in turn and give its Ki.
1. CC1CCN(c2c(S(=O)(=O)c3ccc(F)c(F)c3)cnc3cc(Cl)ccc23)CC1
2. Cc1ccc(S(=O)(=O)c2cnc3cc(F)ccc3c2N2CCOCC2)cc1F
3. CC1CCN(c2cc(C#N)cc(S(=O)(=O)c3sc4ncccc4c3N3CCC(C)CC3)c2)CC1
4. COc1ccc(C(=O)N2Cc3ccccc3C2CC(C)(C)O)cc1C#Cc1ccccn1 (stereo not drawn)
5. O=S(=O)(c1ccc(Cl)cc1)c1sc2ncccc2c1N1CCC(CO)CC1

Result:
1. < 200 nM
2. 200 to 500 nM
3. 500 to 1500 nM
4. 612 nM
5. < 500 nM

----------
Literature-derived pKi for Metabotropic glutamate receptor 5 (Rattus norvegicus, UniProt P31424) follows.
pKi: −log10 of the molar value.

Take each entry in turn and give its pKi.
1. CC1CCN(c2c(S(=O)(=O)c3cc(F)cc(F)c3)cnc3c(F)cccc23)CC1
2. O=C(CCc1ccoc1)c1sc2ncccc2c1-c1ccc(F)cc1
3. Nc1cnc2sc(S(=O)(=O)c3ccc(Cl)cc3)c(-c3cccc(F)c3)c2c1
4. COc1cccc(S(=O)(=O)c2cnc3ccc(F)cc3c2-c2ccc(Cl)cc2)c1
5. COc1ccc2ncc(S(=O)(=O)c3ccc(OC)c(OC)c3)c(N3CCC(C)CC3)c2c1

Result:
["< 6.30", "5.82 to 6.30", "> 6.30", "> 6.70", "< 6.30"]
